Documented pIC50 across a set of molecules
Experimental Target: E. coli RNA polymerase σ70 holoenzyme (Escherichia coli, UniProt P0A8T7+P0A8V2)
Sequence (P0A8V2 whole entry): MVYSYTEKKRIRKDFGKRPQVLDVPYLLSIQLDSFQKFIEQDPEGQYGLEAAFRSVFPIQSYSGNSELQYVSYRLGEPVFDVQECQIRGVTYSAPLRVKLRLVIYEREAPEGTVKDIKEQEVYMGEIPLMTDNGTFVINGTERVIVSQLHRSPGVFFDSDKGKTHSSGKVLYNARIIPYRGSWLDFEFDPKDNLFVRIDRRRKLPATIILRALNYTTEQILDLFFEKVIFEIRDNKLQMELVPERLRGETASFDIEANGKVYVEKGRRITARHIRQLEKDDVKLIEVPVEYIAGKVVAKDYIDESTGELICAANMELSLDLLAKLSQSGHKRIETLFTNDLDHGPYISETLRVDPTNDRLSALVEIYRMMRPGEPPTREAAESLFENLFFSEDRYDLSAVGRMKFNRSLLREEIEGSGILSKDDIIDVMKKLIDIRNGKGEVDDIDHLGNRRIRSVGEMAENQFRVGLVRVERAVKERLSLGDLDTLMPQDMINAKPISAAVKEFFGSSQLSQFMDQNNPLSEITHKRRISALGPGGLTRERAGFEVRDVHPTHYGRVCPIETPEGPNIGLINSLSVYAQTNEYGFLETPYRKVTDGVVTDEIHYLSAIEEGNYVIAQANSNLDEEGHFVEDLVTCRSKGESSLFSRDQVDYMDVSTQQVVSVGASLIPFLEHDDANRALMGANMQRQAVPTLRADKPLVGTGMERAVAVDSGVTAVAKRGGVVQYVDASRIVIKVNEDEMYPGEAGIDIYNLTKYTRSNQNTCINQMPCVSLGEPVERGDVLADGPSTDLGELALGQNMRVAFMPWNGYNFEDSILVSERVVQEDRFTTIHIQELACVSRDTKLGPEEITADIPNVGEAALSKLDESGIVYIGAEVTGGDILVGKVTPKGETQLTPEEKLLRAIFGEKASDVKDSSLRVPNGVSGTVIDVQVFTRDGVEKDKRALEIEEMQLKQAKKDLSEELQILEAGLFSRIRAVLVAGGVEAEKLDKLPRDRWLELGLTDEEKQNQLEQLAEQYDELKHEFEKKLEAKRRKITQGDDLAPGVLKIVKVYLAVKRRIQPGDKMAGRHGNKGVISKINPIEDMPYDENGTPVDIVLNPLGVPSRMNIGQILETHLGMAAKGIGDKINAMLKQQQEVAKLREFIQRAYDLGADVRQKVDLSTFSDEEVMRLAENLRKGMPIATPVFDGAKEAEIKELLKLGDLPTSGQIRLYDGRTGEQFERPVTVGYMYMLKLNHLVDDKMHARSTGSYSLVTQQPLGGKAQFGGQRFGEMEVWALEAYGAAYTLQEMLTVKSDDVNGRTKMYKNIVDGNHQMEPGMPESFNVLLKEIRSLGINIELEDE
Sequence (P0A8T7 whole entry): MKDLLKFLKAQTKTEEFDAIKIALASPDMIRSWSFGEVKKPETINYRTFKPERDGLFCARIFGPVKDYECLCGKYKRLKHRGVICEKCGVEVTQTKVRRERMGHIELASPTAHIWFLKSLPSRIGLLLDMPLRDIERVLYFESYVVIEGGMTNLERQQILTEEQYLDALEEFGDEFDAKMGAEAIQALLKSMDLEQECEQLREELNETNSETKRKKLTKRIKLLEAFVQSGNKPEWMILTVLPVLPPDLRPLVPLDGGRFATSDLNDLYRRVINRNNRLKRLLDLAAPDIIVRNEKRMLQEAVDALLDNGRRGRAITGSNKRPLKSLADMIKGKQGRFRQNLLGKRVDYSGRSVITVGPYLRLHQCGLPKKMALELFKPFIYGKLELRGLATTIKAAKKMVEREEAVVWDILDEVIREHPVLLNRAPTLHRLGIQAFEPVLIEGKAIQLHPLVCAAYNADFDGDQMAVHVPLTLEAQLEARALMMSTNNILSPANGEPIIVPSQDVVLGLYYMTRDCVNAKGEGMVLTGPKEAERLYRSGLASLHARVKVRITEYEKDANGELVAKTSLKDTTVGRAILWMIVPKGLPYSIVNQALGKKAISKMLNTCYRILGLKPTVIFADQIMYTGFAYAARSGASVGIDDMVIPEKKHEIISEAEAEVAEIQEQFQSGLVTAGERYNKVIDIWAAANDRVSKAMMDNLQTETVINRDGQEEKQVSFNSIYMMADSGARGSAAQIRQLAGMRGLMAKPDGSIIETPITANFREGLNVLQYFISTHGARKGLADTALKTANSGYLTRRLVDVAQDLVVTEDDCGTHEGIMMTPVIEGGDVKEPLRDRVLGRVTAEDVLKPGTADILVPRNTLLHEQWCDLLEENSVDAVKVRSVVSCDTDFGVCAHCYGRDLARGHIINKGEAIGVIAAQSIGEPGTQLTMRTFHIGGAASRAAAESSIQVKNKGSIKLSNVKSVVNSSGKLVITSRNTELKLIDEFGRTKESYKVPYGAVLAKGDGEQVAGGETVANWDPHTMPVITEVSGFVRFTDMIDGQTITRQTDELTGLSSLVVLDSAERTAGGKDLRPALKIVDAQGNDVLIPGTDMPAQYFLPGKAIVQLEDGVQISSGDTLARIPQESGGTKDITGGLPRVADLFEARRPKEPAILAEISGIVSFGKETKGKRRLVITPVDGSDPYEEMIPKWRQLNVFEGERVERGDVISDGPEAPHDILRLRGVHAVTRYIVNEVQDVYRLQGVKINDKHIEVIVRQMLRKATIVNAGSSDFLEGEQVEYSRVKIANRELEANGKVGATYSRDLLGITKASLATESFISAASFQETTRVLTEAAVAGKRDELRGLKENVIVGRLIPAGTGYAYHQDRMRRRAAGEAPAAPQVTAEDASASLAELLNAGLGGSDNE
Sequence (P0A7Z4 whole entry partner): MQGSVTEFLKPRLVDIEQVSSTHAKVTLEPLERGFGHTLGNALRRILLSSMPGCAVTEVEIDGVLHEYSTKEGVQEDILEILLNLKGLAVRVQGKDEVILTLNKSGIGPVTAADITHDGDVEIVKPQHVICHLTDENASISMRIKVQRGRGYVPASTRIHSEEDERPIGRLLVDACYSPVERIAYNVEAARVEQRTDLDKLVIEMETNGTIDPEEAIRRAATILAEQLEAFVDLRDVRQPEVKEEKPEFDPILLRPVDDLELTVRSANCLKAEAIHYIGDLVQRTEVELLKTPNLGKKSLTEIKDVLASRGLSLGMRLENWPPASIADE
Sequence (P0A800 2-91 partner limits assumed): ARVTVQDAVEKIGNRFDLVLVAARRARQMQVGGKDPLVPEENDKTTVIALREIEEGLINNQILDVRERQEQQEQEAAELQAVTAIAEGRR
Sequence (P00579 whole entry partner): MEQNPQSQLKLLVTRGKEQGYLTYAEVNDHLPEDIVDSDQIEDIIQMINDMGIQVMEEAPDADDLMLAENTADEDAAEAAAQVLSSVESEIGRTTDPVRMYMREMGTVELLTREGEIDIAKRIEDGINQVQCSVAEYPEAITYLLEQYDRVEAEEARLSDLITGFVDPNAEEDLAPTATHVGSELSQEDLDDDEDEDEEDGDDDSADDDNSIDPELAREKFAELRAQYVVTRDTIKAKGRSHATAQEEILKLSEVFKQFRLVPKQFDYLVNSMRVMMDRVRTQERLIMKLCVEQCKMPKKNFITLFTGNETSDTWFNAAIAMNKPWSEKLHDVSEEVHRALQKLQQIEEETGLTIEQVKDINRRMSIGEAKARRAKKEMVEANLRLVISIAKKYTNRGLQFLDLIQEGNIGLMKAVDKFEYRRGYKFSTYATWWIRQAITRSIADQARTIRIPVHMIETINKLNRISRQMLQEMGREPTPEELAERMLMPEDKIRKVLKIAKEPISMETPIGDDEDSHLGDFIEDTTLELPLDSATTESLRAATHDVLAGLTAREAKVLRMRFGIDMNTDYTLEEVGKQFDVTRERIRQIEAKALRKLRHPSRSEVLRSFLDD
Procedure Details: Fluorescence-detected inhibition of bacterial RNA polymerase
Format: biochemical
Condition Description: 75 nM E. coli RNAP holoenzyme, RiboGreen fluorescence; read-out: in vitro RNAP-inhibitory activity E. coli RNAP IC50
Conceptually, pIC50 converts a concentration in mol/L into minus its log10.

Can you share its pIC50? I mean this molecule: [2H]C([2H])([2H])OC(=O)N/C=C/CCCc1cc(O)c(C(=O)/C(C)=C/c2cnc(Oc3ccc(F)c(Cl)c3)s2)c(=O)o1
8.54

---

Reported pIC50 values for the following molecules.
Experimental Target: E. coli RNA polymerase σ70 holoenzyme (Escherichia coli, UniProt P0A8T7+P0A8V2)
Procedure Details: Fluorescence-detected inhibition of bacterial RNA polymerase
Assay type: biochemical
Condition Description: 75 nM E. coli RNAP holoenzyme, RiboGreen fluorescence; read-out: in vitro RNAP-inhibitory activity E. coli RNAP IC50
Please express pIC50 as -log10 of the molar concentration.

As a guide, the following entries are already answered.
{"columns": ["Molecule", "pIC50"],
 "data": [
  ["COC(=O)N/C=C/CCCc1cc(O)c(C(=O)/C(C)=C/c2cnc(Oc3ccc(F)cc3)s2)c(=O)o1", 8.08],
  ["[2H]C([2H])([2H])OC(=O)N/C=C/CCCc1cc(O)c(C(=O)/C(C)=C/c2cnc(Oc3ccc(F)c(Br)c3)s2)c(=O)o1", 8.80]
]}

Could you share which pIC50 value was measured for COC(=O)N/C=C/CCC(C)c1cc(O)c(C(=O)/C(C)=C/c2cnc(Oc3ccc(F)cc3)s2)c(=O)o1 (stereo not shown) ?
8.02

Consider the molecule shown here: COC(=O)N/C=C/CCC(C)c1cc(O)c(C(=O)/C(C)=C/c2sc(Oc3ccc(F)cc3)nc2C)c(=O)o1 (stereo not shown) What is its recorded pIC50?
8.25

Dear colleague, I am looking for the recorded pIC50 of the following molecule: [2H]C([2H])([2H])OC(=O)N/C=C/CCCc1cc(O)c(C(=O)/C(C)=C/c2cnc(Oc3ccc(-c4ccccc4)cc3)s2)c(=O)o1
7.74

// pIC50 lookup, key: [2H]C([2H])([2H])OC(=O)N/C=C/CCCc1cc(O)c(C(=O)/C(C)=C/c2cnc(Oc3ccc(F)cc3)s2)c(=O)o1
8.52

Which pIC50 value belongs to [2H]C([2H])([2H])OC(=O)N/C=C/CCCc1cc(O)c(C(=O)/C(C)=C/c2sc(Oc3ccc(F)cc3)nc2C)c(=O)o1 ?
8.70

---

This section presents molecules with their documented pIC50 values.
Experimental Target: E. coli RNA polymerase σ70 holoenzyme (Escherichia coli, UniProt P0A8T7+P0A8V2)
Procedure Details: Fluorescence-detected inhibition of bacterial RNA polymerase
Format: biochemical
Scale: negative log10 of molar concentration, which is what pIC50 denotes.

Record excerpt, results attached:
{"columns": ["Molecule", "Experimental Target", "pIC50"],
 "data": [
  ["[2H]C([2H])([2H])OC(=O)N/C=C/CCCc1cc([O-])c(C(=O)/C(C)=C/c2cnc(Oc3ccc(F)c(Cl)c3)s2)c(=O)o1.[Na+] [Example 15]", "E. coli RNA polymerase σ70 holoenzyme (Escherichia coli, UniProt P0A8T7+P0A8V2)", 8.54],
  ["[2H]C([2H])([2H])OC(=O)N/C=C/CCCc1cc([O-])c(C(=O)/C(C)=C/c2cnc(Oc3ccc(F)cc3)s2)c(=O)o1.[Na+] [Example 9]", "E. coli RNA polymerase σ70 holoenzyme (Escherichia coli, UniProt P0A8T7+P0A8V2)", 8.52]
]}

Now look at this entry.
# query: pIC50 of entry [2H]C([2H])([2H])OC(=O)N/C=C/CCCc1cc([O-])c(C(=O)/C(C)=C/c2cnc(Oc3ccc(-c4ccccc4)cc3)s2)c(=O)o1.[Na+] [Example 17]
7.31

---

Procedure Details: Metabolic stability, human liver microsomes
Type: in vitro ADME
Condition Description: human liver microsomes (male) 1 mg/ml, 1 mM NADPH, pH 7.4, 37° C.
Experimental: Test compounds were incubated with mouse liver microsomes (CD-1; male and female pooled; 1 mg/ml) or human liver microsomes (male; 1 mg/ml) in 50 mM potassium phosphate, pH 7.4, and 1 mM NADPH at 37° C. Aliquots were removed at 0, 15, 30, 60, 90 and 120 min, and amounts of test compounds remaining were determined by LC-MS/MS. […]
Known human liver microsome t0.5 of a selection of compounds
Phrase the answer as number then unit, nothing more needed.

{"columns": ["Compound", "human liver microsome t0.5"],
 "data": [
  ["COC(=O)N/C=C/CCCc1cc(O)c(C(=O)/C(C)=C/c2sc(Oc3ccc(F)cc3)nc2C)c(=O)o1", "5.6 min"],
  ["[2H]C([2H])([2H])OC(=O)N/C=C/CCCc1cc([O-])c(C(=O)/C(C)=C/c2cnc(Oc3ccc(F)cc3)s2)c(=O)o1.[Na+]", "29 min"]
]}

With those in mind, consider the next compound.
Entry under review: [2H]C([2H])([2H])OC(=O)N/C=C/CCC(C)c1cc(O)c(C(=O)/C(C)=C/c2sc(Oc3ccc(F)cc3)nc2C)c(=O)o1 (stereo not drawn) . Reported human liver microsome t0.5?
16 min

---

Procedure Details: Metabolic stability, mouse liver microsomes
Format: in vitro ADME
Condition Description: CD-1 mouse liver microsomes 1 mg/ml, 1 mM NADPH, pH 7.4, 37° C.
Reported Property: mouse liver microsome t0.5

# example entries with known answers
{"columns": ["Compound", "mouse liver microsome t0.5"],
 "data": [
  ["[2H]C([2H])([2H])OC(=O)N/C=C/CCCc1cc([O-])c(C(=O)/C(C)=C/c2cnc(Oc3ccc(F)cc3)s2)c(=O)o1.[Na+]", ">120 min"],
  ["COC(=O)N/C=C/CCCc1cc(O)c(C(=O)/C(C)=C/c2sc(Oc3ccc(F)cc3)nc2C)c(=O)o1", "110 min"],
  ["COC(=O)N/C=C/CCC(C)c1cc(O)c(C(=O)/C(C)=C/C=C(\\C)CCC(F)(F)F)c(=O)o1 (stereo not drawn) [Example 11, reference compound]", "100 min"],
  ["[2H]C([2H])([2H])OC(=O)N/C=C/CCCc1cc(O)c(C(=O)/C(C)=C/c2cnc(Oc3ccc(F)cc3)s2)c(=O)o1", ">120 min"],
  ["[2H]C([2H])([2H])OC(=O)N/C=C/CCC(C)c1cc(O)c(C(=O)/C(C)=C/C=C(\\C)CCC(F)(F)F)c(=O)o1 (stereo not drawn)", ">120 min"]
]}

Let us move to another entry and its mouse liver microsome t0.5.
Give its mouse liver microsome t0.5 value. Item: [2H]C([2H])([2H])OC(=O)N/C=C/CCCc1cc(O)c(C(=O)/C(C)=C/c2cnc(Oc3ccc(-c4ccccc4)cc3)s2)c(=O)o1
46 min

---

Procedure Details: Metabolic stability, mouse liver microsomes
Format: in vitro ADME
Condition Description: CD-1 mouse liver microsomes 1 mg/ml, 1 mM NADPH, pH 7.4, 37° C.
Entries and their mouse liver microsome t0.5
Give just the number in min; leave the unit off.

In the examples that follow, each entry is paired with its recorded mouse liver microsome t0.5.
{"columns": ["Compound", "Experimental Value"],
 "data": [
  ["[2H]C([2H])([2H])OC(=O)N/C=C/CCCc1cc(O)c(C(=O)/C(C)=C/c2cnc(Oc3ccc(F)c(Cl)c3)s2)c(=O)o1", 65],
  ["COC(=O)N/C=C/CCC(C)c1cc(O)c(C(=O)/C(C)=C/c2sc(Oc3ccc(F)cc3)nc2C)c(=O)o1 (stereo not drawn)", 21],
  ["[2H]C([2H])([2H])OC(=O)N/C=C/CCC(C)c1cc(O)c(C(=O)/C(C)=C/C=C(\\C)CCCC)c(=O)o1 (stereo not drawn)", 66],
  ["COC(=O)N/C=C/CCC(C)c1cc(O)c(C(=O)/C(C)=C/c2cnc(Oc3ccc(F)cc3)s2)c(=O)o1 (stereo not drawn)", 60],
  ["CCCC/C(C)=C/C=C(\\C)C(=O)c1c(O)cc(C(C)CC/C=C/NC(=O)OC)oc1=O (racemic) [Example 10, (±)Myxopyronin B, reference compound]", 21]
]}

What does the record list as mouse liver microsome t0.5 for [2H]C([2H])([2H])OC(=O)N/C=C/CCC(C)c1cc(O)c(C(=O)/C(C)=C/c2sc(Oc3ccc(F)cc3)nc2C)c(=O)o1 (stereo not drawn) ?
59

---

Experimental Target: E. coli RNA polymerase σ70 holoenzyme (Escherichia coli, UniProt P0A8T7+P0A8V2)
Procedure Details: Fluorescence-detected inhibition of bacterial RNA polymerase
Assay type: biochemical
Condition Description: 75 nM E. coli RNAP holoenzyme, RiboGreen fluorescence; read-out: in vitro RNAP-inhibitory activity E. coli RNAP IC50
Reported Property: pIC50
// field semantics: pIC50 = negative decimal log of concentration (mol/L)

What pIC50 value was documented for this compound, [2H]C([2H])([2H])OC(=O)N/C=C/CCC(C)c1cc(O)c(C(=O)/C(C)=C/C=C(\C)CCC(F)(F)F)c(=O)o1 (stereo not drawn) ?
7.64

Quick one: pIC50 for [2H]C([2H])([2H])OC(=O)N/C=C/CCC(C)c1cc(O)c(C(=O)/C(C)=C/c2cnc(Oc3ccc(F)cc3)s2)c(=O)o1 (stereo not drawn) ?
8.28

What value of pIC50 has been reported for the following compound? COC(=O)N/C=C/CCC(C)c1cc(O)c(C(=O)/C(C)=C/C=C(\C)CCC(F)(F)F)c(=O)o1 (stereo not drawn) [Example 11, reference compound]
7.92
